- Tested on: LOX IMVI
- test.name: NCI tumour cell line growth inhibition, 48 h
Active and inactive are the calls of the source. Cut-off read from the data, not from the text of the source: active = GI50 up to about 1.1 µM and inactive = higher.
GI50 by entry:

See these solved cases before continuing.
CCOC(=O)C1(C/C=C\CBr)CCCCCCCCCCC1=O (stereo unspecified) ... 0.428 µM (active)
c1cc2nnc1SCCSCCSCCSc1ccc(nn1)SCCSCCSCCS2 ... > 100 µM (inactive)
CN1CCOC(c2ccccc2)O1 (stereo unspecified) ... > 100 µM (inactive)

Short answer for CC(NNC(=O)c1cc[n+]([BH2-]C#N)cc1)c1cccc(F)c1 (stereo unspecified) : GI50 was > 100 µM (inactive)

Short answer for C#CCNC(CS)C(=O)O (stereo unspecified) : GI50 was > 100 µM (inactive)

Short answer for `C[n+]1cn(-c2nc3ccccc3nc2[N-]S(=O)(=O)c2ccccc2)c2ccccc21` : GI50 was > 100 µM (inactive)

====

GI50 by entry:
- Tested on: KM12
- test.name: NCI tumour cell line growth inhibition, 48 h
Activity calls are given as the source filed them. Cut-off read from the data, not from the text of the source: active = GI50 up to about 1.1 µM and inactive = higher.

COC(=O)c1c(-c2ccccc2)cc2c3cc(-c4ccccc4)c(C(=O)OC)n3c3ccccc3n12 ... > 100 µM (inactive)

Field GI50 (KM12), entry `CC(=O)C(=C(I)I)c1ccccc1` : 20.9 µM (inactive)

Field GI50 (KM12), entry COC(=O)C1=C(\O)C[C@@]2(C)CC[C@@H](C(=O)OC)C2C/C=C\1C(=O)OC (stereo partly drawn) : > 100 µM (inactive)

Field GI50 (KM12), entry `CCC/C=C/c1cc2c(cc1O)CC[C@@H]1[C@@H]2CC[C@]2(C)[C@@H](O)CC[C@@H]12` : 17.3 µM (inactive)

Field GI50 (KM12), entry `NCCN/C(=N\c1ccccc1)Nc1ccccc1` : > 100 µM (inactive)

Field GI50 (KM12), entry CC1OC(CC(=O)O)Cc2c(O)c3c(c(O)c21)C(=O)C=C(C1=CC(=O)c2c(O)c4c(c(O)c2C1=O)CC(CC(=O)O)OC4C)C3=O (stereo not drawn) : 39.1 µM (inactive)

Field GI50 (KM12), entry NC(=O)N1N=C2c3ccccc3CC[C@@H]2C1c1ccccc1 (stereo partly drawn) : > 100 µM (inactive)

Field GI50 (KM12), entry `COc1ccc(S(=O)(=O)N/N=C/CN2C(=O)c3ccccc3C2=O)cc1OC` : > 100 µM (inactive)

Field GI50 (KM12), entry `CC(=O)Oc1c(OC(C)C)cc(=O)n2ccsc12` : > 100 µM (inactive)

Field GI50 (KM12), entry `N#Cc1cnc(-n2[nH]c3c(c2=O)CCCC3)[nH]c1=O` : 21.8 µM (inactive)

Field GI50 (KM12), entry CC1CC(C)[C@H](O)C([C@H](O)CC2CC(=O)N(C)C(=O)C2)C1 (stereo partly drawn) : > 100 µM (inactive)

====

- Test system: IGROV-1
- test.name: NCI tumour cell line growth inhibition, 48 h
Active and inactive are the calls of the source. Rule as the data show it: active = GI50 up to about 1.1 µM and inactive = higher.
measurement.type: GI50

See these solved cases before continuing.
COc1ccccc1NS(=O)(=O)c1cc(C(C)(C)C)ccc1OCCOc1ccc(C(C)(C)C)cc1S(=O)(=O)Nc1ccccc1OC ... > 100 µM (inactive)
O=C1C(c2ccccc2)=C(c2ccccc2)C(c2ccc(-c3ccc(C4=C(c5ccccc5)C(=O)C(c5ccccc5)=C4c4ccccc4)cc3)cc2)=C1c1ccccc1 ... > 100 µM (inactive)
CCN1C(=O)N2C(OC)c3ccccc3C(Br)C2(OC)C1=O (stereo unspecified) ... > 100 µM (inactive)
COc1ccc2c(c1)C1OCCNC1CC2 (stereo unspecified) ... > 100 µM (inactive)
COC(=O)C1=C(CCC[C@H](C)O[Si](C)(C)C(C)(C)C)NC(=O)N2[C@@H](CCO)CC[C@H]12 ... 15.8 µM (inactive)

--- query ---
Short answer for Cc1ccc(/C=C2\CN(C)CC3C2=NC(=S)NC3c2ccc(C)cc2)cc1 (stereo unspecified) : GI50 was 13.7 µM (inactive)
